test-details: small-molecule binders of probe aNOTCH2, primary screen, biochemical, small-molecule microarray, 635/667 nm fluorescence (AID 1121);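 further: score merges feature fluorescence read at 667 nm with its signal to noise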
test-conditions: higher = more signal

>  <molecule>
CC(C)=CCCC(C)=CCON=C1[C@H]2CCn3c(=O)n(-c4ccccc4)c(=O)n3[C@H]2[C@H](O)[C@@H]2O[C@H]12

>  <composite z-score>
-0.14

$$$$
>  <molecule>
COC(=O)CC=C[C@@H](C)[C@@H](C=NOC[C@@H](O)COCc1ccco1)OC

>  <composite z-score>
-0.14

$$$$
>  <molecule>
O=C1C=C[C@@H](O)[C@@H]2[C@@H]3C(=O)N(c4cccc(Oc5ccccc5)c4)C(=O)[C@@H]3CC[C@@H]12

>  <composite z-score>
-0.176

$$$$
>  <molecule>
C[C@@H]1CC[C@H]2C(=O)OC(CN3C(=O)c4ccccc4C3=O)CN2[C@H]1c1ccc(Br)cc1 (some centres undefined)

>  <composite z-score>
0.178

$$$$
>  <molecule>
COCOc1ccc(Br)cc1C(=O)C=Cc1ccc2c(c1)OCO2

>  <composite z-score>
-0.169

$$$$
>  <molecule>
CCC1=NOC(CCC2CC(OC(=O)NCc3cccc4c3OCO4)CC3(CCCC(COC(=O)NCCc4ccc(Cl)cc4)O3)O2)C1 (centres undefined)

>  <composite z-score>
-0.0651

$$$$
>  <molecule>
CO[C@H]1COC(=O)CCC[C@H](C)[C@@H](OC)COC(=O)CC=C[C@@H]1C

>  <composite z-score>
-0.0766

$$$$
>  <molecule>
COC(=O)[C@H](C)NC(=O)CCC1CC(OC(=O)NCc2ccc3c(c2)OCO3)CC2(CCCC(COC(=O)NCCc3ccc(Cl)cc3)O2)O1 (some centres undefined)

>  <composite z-score>
-0.0974

$$$$
>  <molecule>
O=C1C=C[C@@H](O)[C@@H]2[C@@H]3C(=O)N(Cc4ccccc4)C(=O)[C@@H]3CC[C@@H]12

>  <composite z-score>
-0.132

$$$$
>  <molecule>
CC(C)[C@@H](OCc1ccccc1)[C@H](C)CON=C1[C@H]2CCn3c(=O)n(-c4ccccc4)c(=O)n3[C@H]2[C@H](O)[C@@H]2O[C@H]12

>  <composite z-score>
-0.0527

$$$$
>  <molecule>
CC#CCOCCC=C1c2ccccc2[C@@H](OC)[C@@H]1C

>  <composite z-score>
-0.101

$$$$
>  <molecule>
COC(=O)[C@@H]1CC[C@H](C)[C@@H](c2ccc(C)cc2)N1C(=O)c1ccc(C=NOC[C@H]2O[C@H](c3ccccc3)C=C[C@@H]2Oc2ccc(OC)cc2)cc1

>  <composite z-score>
-0.161

$$$$
>  <molecule>
CCO[C@H](c1cc(OC)cc([N+](=O)[O-])c1OC)[C@H](C)[C@@H](OC)[C@H](C)C=CCC(=O)OC

>  <composite z-score>
-0.0907

$$$$
>  <molecule>
C=CC[C@@H]1C=CC(ON=C(C)C)[C@@H](CO)O1 (some centres undefined)

>  <composite z-score>
-0.19

$$$$

----------
system: Carbonic anhydrase 2 (Homo sapiens)
test-details: CAII small-molecule binders, profiling panel, biochemical, small-molecule microarray, Alexa647-labelled CAII (AID 1122)
test-conditions: CAII-A647 binding fluorescence, higher = more signal
Please assign a class to every record based on measured composite z-score, with ranges bottom (below 0.1), middle (0.1 to below 0.5), top (0.5 or more)

>  <compound>
CC(C)CON=C1C[C@@H](O)[C@@H](O)[C@@H]2[C@@H]3C(=O)N(Cc4ccc5c(c4)OCO5)C(=O)[C@@H]3CC[C@@H]12

>  <system>
Carbonic anhydrase 2 (Homo sapiens)

>  <answer-label>
top

$$$$
>  <compound>
CO[C@@H](C(C)C)[C@@H](C)C1OC(=O)CC1O (some centres undefined)

>  <system>
Carbonic anhydrase 2 (Homo sapiens)

>  <answer-label>
bottom

$$$$
>  <compound>
CC(C)CN1CCc2nc(-c3ccccc3)c3c(c2C1)CO[C@@H](C)C3

>  <system>
Carbonic anhydrase 2 (Homo sapiens)

>  <answer-label>
middle

$$$$
>  <compound>
CCOC(=O)[C@H](CC(C)C)NC(=O)CCC1CC(OC(=O)NCc2ccc3c(c2)OCO3)CC2(CCCC(COC(=O)NCCC(C)C)O2)O1 (some centres undefined)

>  <system>
Carbonic anhydrase 2 (Homo sapiens)

>  <answer-label>
top

$$$$
>  <compound>
CCOC(=O)[C@H](Cc1ccccc1)NC(=O)CCC1CC(OC(=O)NCc2cccc3ccccc23)CC2(CCCC(COC(=O)NCCOc3ccccc3)O2)O1 (some centres undefined)

>  <system>
Carbonic anhydrase 2 (Homo sapiens)

>  <answer-label>
middle

$$$$
>  <compound>
CC(C)=NOC(C)CN1CCCc2nc(C)c(C)cc21 (centres undefined)

>  <system>
Carbonic anhydrase 2 (Homo sapiens)

>  <answer-label>
middle

$$$$
>  <compound>
CC(C)(C)N1C(=O)[C@H]2[C@H]3[C@H](O)[C@H](O)CC(=NOC[C@@H](O)COCc4ccco4)[C@H]3CC[C@H]2C1=O

>  <system>
Carbonic anhydrase 2 (Homo sapiens)

>  <answer-label>
middle

$$$$
>  <compound>
COc1cccc([C@H]2Oc3ccc(OC)cc3C(=NO[C@@H](C)c3cc(-c4c(C)cc(C)cc4C)no3)[C@@H]2O)c1

>  <system>
Carbonic anhydrase 2 (Homo sapiens)

>  <answer-label>
middle

$$$$
>  <compound>
CCOC(=O)[C@H](Cc1ccccc1)NC(=O)CCC1CC(OC(=O)NCc2cccc3ccccc23)CC2(CCCC(COC(=O)NCC3CCCCC3)O2)O1 (some centres undefined)

>  <system>
Carbonic anhydrase 2 (Homo sapiens)

>  <answer-label>
bottom

$$$$

----------
system: NADPH oxidase 5 (Homo sapiens) (UniProt Q96PH1)
Sequence (Q96PH1 whole entry, looked up): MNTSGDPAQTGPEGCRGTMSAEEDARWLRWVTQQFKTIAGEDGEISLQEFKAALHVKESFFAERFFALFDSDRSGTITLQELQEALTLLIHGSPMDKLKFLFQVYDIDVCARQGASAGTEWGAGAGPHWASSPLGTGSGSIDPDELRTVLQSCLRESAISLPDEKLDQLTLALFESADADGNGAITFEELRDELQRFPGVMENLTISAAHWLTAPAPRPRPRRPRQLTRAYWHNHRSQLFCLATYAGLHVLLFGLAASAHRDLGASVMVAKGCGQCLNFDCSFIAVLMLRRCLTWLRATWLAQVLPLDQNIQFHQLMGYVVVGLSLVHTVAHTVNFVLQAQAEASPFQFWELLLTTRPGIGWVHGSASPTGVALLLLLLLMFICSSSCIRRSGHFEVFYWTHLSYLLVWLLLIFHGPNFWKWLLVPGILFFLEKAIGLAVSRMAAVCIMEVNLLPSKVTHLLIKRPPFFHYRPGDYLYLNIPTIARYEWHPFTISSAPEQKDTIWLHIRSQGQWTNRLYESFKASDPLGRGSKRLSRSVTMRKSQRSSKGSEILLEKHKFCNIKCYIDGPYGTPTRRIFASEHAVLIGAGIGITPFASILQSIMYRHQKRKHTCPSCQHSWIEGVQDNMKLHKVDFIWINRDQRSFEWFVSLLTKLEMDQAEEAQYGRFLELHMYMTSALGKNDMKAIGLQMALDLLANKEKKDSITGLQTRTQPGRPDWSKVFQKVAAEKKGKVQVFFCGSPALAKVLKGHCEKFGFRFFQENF
test-details: NOX5-dependent H2O2 signal modulators, primary screen, NOX inhibitor project, cell-based, HEK293-NOX5, Amplex Red fluorescence (AID 1161)
test-conditions: HEK293-NOX5, ionomycin, 45 min, higher = more signal
Label No if z-score falls below -0.07; label Yes in every other case.

>  <molecule>
CCOC(=O)[C@H](CC(C)C)NC(=O)CCC1CC(OC(=O)NCCc2ccc(F)cc2)CC2(CCCC(COC(=O)NCc3cccc4ccccc34)O2)O1 (stereo not given in full)

>  <system>
NADPH oxidase 5 (Homo sapiens) (UniProt Q96PH1)

>  <answer-label>
Yes

$$$$
>  <molecule>
CCCNC(=O)OC[C@H]1O[C@H](CCON=C[C@@H](NS(=O)(=O)c2ccc(C)cc2)[C@H](C)C=CCC(=O)OC)C=C[C@@H]1Oc1ccc(OC)cc1

>  <system>
NADPH oxidase 5 (Homo sapiens) (UniProt Q96PH1)

>  <answer-label>
No

$$$$
>  <molecule>
CC(CCC(=O)OC[C@H]1O[C@H](C#Cc2ccccc2)C=C[C@@H]1Oc1ccc(C)cc1)=NO[C@H](C)c1cn([C@@H]2COC[C@H]2O)nn1

>  <system>
NADPH oxidase 5 (Homo sapiens) (UniProt Q96PH1)

>  <answer-label>
No

$$$$
>  <molecule>
CCCNC(=O)OC[C@H]1O[C@H](CCON=C[C@@H](C)[C@H](OCc2ccccc2)C(C)C)C=C[C@@H]1Oc1ccc(OC)cc1

>  <system>
NADPH oxidase 5 (Homo sapiens) (UniProt Q96PH1)

>  <answer-label>
No

$$$$
>  <molecule>
COC(=O)[C@H](C)NC(=O)CCC1CC(OC(=O)NCc2cccc3ccccc23)CC2(CCCC(COC(=O)NCCCN3CCCC3=O)O2)O1 (stereo not given in full)

>  <system>
NADPH oxidase 5 (Homo sapiens) (UniProt Q96PH1)

>  <answer-label>
No

$$$$

----------
system: Focal adhesion kinase 1 (Homo sapiens)
test-details: small-molecule microarray binders of FAK, primary screen, biochemical, 635/667 nm fluorescence, BSA, DTT (AID 1130);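 further: composite of spot emission at 667 nm and signal to noise over triplicate slides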
test-conditions: PTK2 binding, 635 nm fluorescence, higher = more signal
Listing: composite z-score of selected compounds

>  <structure>
O=C1[C@H]2[C@H]3[C@H](O)[C@H](O)CC(=NOC[C@@H](O)COCc4ccco4)[C@@H]3CC[C@H]2C(=O)N1C1CCCCC1

>  <composite z-score>
-0.569

$$$$
>  <structure>
C=C(C)C(=O)OC[C@H]1CN2[C@@H](CC[C@@H](C)[C@@H]2c2ccc(Br)cc2)C(=O)O1

>  <composite z-score>
-0.174

$$$$
>  <structure>
CC(C)CON=C1C[C@@H](O)[C@@H](O)[C@@H]2[C@@H]3C(=O)N(Cc4ccccc4)C(=O)[C@@H]3CC[C@H]12

>  <composite z-score>
0.052

$$$$
>  <structure>
C=CC[C@@H]1C=C[C@H](ON=C2C[C@@H](O)[C@@H](O)[C@@H]3[C@@H]4C(=O)N(CC)C(=O)[C@@H]4CC[C@@H]23)[C@@H](CO)O1

>  <composite z-score>
0.382

$$$$
